Measured mortality at 300 ppm, listed per entry for reference.
- Tested on: Bemisia tabaci
- protocol details: Bemisia tabaci leaf dip test (brinjal leaves, whitefly adults)
- Format: in vivo
- study conditions: foliar, 72 h after release, dead and moribund combined, compared to untreated control, read-out: percent mortality

> print(dat)
                               smiles.input        assay.endpoint  result
1  O=c1nc2n(Cc3cnc(Cl)s3)cccc-2c(=O)n1-c1cccc(OC(F)(F)F)c1  mortality at 300 ppm   ≥ 70%

INPUT: For the molecule `O=c1nc2n(Cc3cnc(Cl)nc3)cccc-2c(=O)n1-c1c(F)cccc1F` , what mortality at 300 ppm is on record?
OUTPUT: ≥ 70%

INPUT: I am curious: what mortality at 300 ppm value has been reported for `O=c1nc2n(Cc3cnc(Cl)nc3)cccc-2c(=O)n1-c1ccc(Cl)c(Cl)c1` ?
OUTPUT: ≥ 70%

INPUT: Would you mind telling me what mortality at 300 ppm value was observed for `O=c1nc2n(Cc3cnc(Cl)nc3)cccc-2c(=O)n1-c1ccc(F)cc1` ?
OUTPUT: ≥ 70%

###

- Tested on: Bemisia tabaci
- protocol details: Bemisia tabaci leaf dip test (brinjal leaves, whitefly adults)
- Assay type: in vivo
- study conditions: foliar, 72 h after release, dead and moribund combined, compared to untreated control, read-out: percent mortality
assay endpoint: mortality at 300 ppm

In the examples that follow, each entry is paired with its recorded mortality at 300 ppm.
> print(dat)
                               smiles.input  result
1  O=c1nc2n(Cc3cnc(Cl)s3)cccc-2c(=O)n1-c1ccc2c(c1)OC(F)(F)O2   ≥ 70%
2  O=c1nc2n(Cc3cnc(Cl)nc3)cccc-2c(=O)n1-c1cc(F)cc(C(F)(F)F)c1   ≥ 70%
3  O=c1nc2n(Cc3cnc(Cl)nc3)cccc-2c(=O)n1-c1ccc(Br)cc1   ≥ 70%
4  O=c1nc2n(Cc3cnc(Cl)nc3)cccc-2c(=O)n1-c1cccc(F)c1   ≥ 70%

INPUT: Please give the measured mortality at 300 ppm for this molecule: `O=c1c2cccn(Cc3ccc(Cl)nc3)c-2nc(=S)n1-c1ccc(OC(F)(F)F)cc1`
OUTPUT: ≥ 70%

INPUT: Value lookup for mortality at 300 ppm; key = `COc1cc(-n2c(=O)nc3n(Cc4cnc(Cl)s4)cccc-3c2=O)ccc1Cl`
OUTPUT: ≥ 70%

INPUT: Can you share its mortality at 300 ppm? I mean this molecule: `O=c1nc2n(Cc3cnc(Cl)s3)cccc-2c(=O)n1-c1ccc(Cl)cc1`
OUTPUT: ≥ 70%

INPUT: For `O=c1c2cccn(Cc3cnc(Cl)nc3)c-2nc(=S)n1-c1ccc(Cl)cc1` , what is its reported mortality at 300 ppm?
OUTPUT: ≥ 70%

INPUT: So what's the measured mortality at 300 ppm for this one? `O=c1nc2n(Cc3ccc(Cl)nc3)cccc-2c(=O)n1-c1ccc(OCC(F)(F)F)cc1`
OUTPUT: ≥ 70%

INPUT: Reported mortality at 300 ppm for `O=c1nc2n(Cc3ccc(Cl)nc3)cccc-2c(=O)n1-c1cccc(SC(F)(F)F)c1` : what is it?
OUTPUT: ≥ 70%

INPUT: # mortality at 300 ppm lookup, item `O=c1nc2n(Cc3cnc(Cl)s3)cccc-2c(=O)n1-c1cccc(C(F)(F)F)c1`
OUTPUT: ≥ 70%

INPUT: Request the reported mortality at 300 ppm associated with `O=c1nc2n(Cc3cnc(Cl)nc3)cccc-2c(=O)n1-c1ccc2c(c1)OC(F)(F)O2`
OUTPUT: ≥ 70%

INPUT: Reported mortality at 300 ppm, molecule `O=c1nc2n(Cc3ccc(Cl)nc3)cccc-2c(=O)n1-c1ccc(OC(F)(F)F)cc1` : ____
OUTPUT: ≥ 70%

INPUT: Please give the measured mortality at 300 ppm for this molecule: `O=c1nc2n(Cc3ccc(C(F)(F)F)nc3)cccc-2c(=O)n1-c1ccc(Cl)cc1`
OUTPUT: ≥ 70%

INPUT: Quick one: mortality at 300 ppm of `O=c1nc2n(Cc3cnc(Cl)nc3)cccc-2c(=O)n1-c1ccc(F)c(Cl)c1` ?
OUTPUT: ≥ 70%

INPUT: // returns reported mortality at 300 ppm for input `O=c1nc2n(Cc3cnc(Cl)nc3)cccc-2c(=O)n1-c1ccc(OC(F)(F)F)c(Cl)c1`
OUTPUT: ≥ 70%
